The origin of these recorded values is paper PMC11969024.

B1: peptide HD2 (from tick evasin EVA4) / CCL22 (biotinylated, synthetic) (parent)
chain 1: EEDDYTAYAPLTCYFT
chain 2: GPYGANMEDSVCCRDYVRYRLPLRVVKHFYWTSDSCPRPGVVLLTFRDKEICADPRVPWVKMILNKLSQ

# Variants of: B1
# CONDITION CONTEXT: with CCL22 (biotinylated, synthetic); scale: log2
VALUE KIND: enrichment

Here is how some variants turned out for enrichment.
>  <MUTANT ID>
chain 1 Y8P

>  <enrichment>
-7.86

$$$$
>  <MUTANT ID>
chain 1 Y8Q

>  <enrichment>
-6.36

$$$$
>  <MUTANT ID>
chain 1 P10M

>  <enrichment>
-8.5

$$$$
>  <MUTANT ID>
chain 1 C13R

>  <enrichment>
-10.5

$$$$
>  <MUTANT ID>
chain 1 A9I

>  <enrichment>
-9.99

$$$$
>  <MUTANT ID>
chain 1 E1C

>  <enrichment>
-9.75

$$$$

Kindly give each listed record's enrichment.
1. chain 1 E2C
2. chain 1 D4K

[-10, -6.88]
